B1: HDV Ribozyme (parent)
chain: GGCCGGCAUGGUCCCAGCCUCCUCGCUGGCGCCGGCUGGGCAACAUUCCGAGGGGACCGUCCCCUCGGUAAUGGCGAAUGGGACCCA

Variants of: B1
Assay: self-cleavage, relative activity (ratio to wild type); higher = more cleavage; co-transcriptional
Quantity Measured: self-cleavage

> print(dat)
    mutant.code  recorded.result
 1    G35A A83U            0.507
 2    G28C C32A            0.154
 3    C19G A70G            0.104
 4     G1U U72C            0.237
 5     G5A C64G            0.237
 6     A8G A45U            0.692
 7     U9A A70C            0.767
 8         A45U            0.832
 9    G73A A77C            0.161
10    A43C G76C            0.604
11    G11U A43C           0.0594
12    G54C G55U             1.05
13    G54U G74U            0.421
14    C26A G29C            0.104
15     C3A C58G            0.606
16    U23G C86A            0.607
17    C32U C66A            0.991
18    C15U U46A            0.692
19    U46A G67C             0.76
20    U47C A77U            0.285
21    C26U G53C             1.04
22    C21A G82C            0.104
23     C7G G38C           0.0594
24    C22U C32G           0.0941
25      G2A U9C            0.113
26    C15A C41U            0.399
27    G59A G82C            0.208
28    C62U G80C            0.281
29    C13A U47G            0.138
30     A8U U12A            0.208
31    G25C A42G                0
32     C4U G68U            0.657
33    C75U A83U            0.199
34    C24A C33G            0.142
35    C21G A56G           0.0791
36    G25U G81A            0.124
37    G17C G53A            0.281
38    G11C C33G           0.0396
39    C63U C64G            0.809
40     G6U A71G            0.399
41    C44G G74A            0.523
42    A70G U72C             0.54
43    A70U C75A           0.0898
44    G10U A42U            0.174
45    C75G C86A            0.147
46    C21A C61U           0.0963

These entries and their values trace back to the RNAGym collection of RNA variant scans (doi:10.7554/elife.80360).
